MEASURED ON: wild-type human uPAR (human, UniProt Q03405 23-305, GPI-anchor on Gly283)
Sequence (Q03405 23-305): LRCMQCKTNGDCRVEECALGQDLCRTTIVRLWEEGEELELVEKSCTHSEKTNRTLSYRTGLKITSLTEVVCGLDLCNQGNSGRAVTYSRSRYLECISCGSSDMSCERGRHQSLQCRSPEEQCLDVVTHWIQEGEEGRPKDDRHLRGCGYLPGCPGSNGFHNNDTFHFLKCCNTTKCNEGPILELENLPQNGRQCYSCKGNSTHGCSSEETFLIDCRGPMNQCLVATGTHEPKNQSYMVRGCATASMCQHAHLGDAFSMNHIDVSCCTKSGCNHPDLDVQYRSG
PROTOCOL DETAILS: cell-based or functional assay
# % max inhibition (pro-uPA pre-treat.) per record follows
API: value field is a number in %; no unit string.

INPUT: // % max inhibition (pro-uPA pre-treat.) lookup, key: 19.10 (antibody, V domains shown) VH: ELVKPGASVKLSCKATGYTFTVYWMEWVRQRPGHGLEWIGEILPGSGRTNYNERFKGKATFTADTSSNTAYMQLSSLTTEDSAIYYCARDYSGDTSTGYFDVWGTGTTVTVS VL: SLSASLGERVSLTCRASQDIGSGLSWLQQEPDGTIKRLIYATSSLDSGVPKRFSGSRSGSDYSLTISSLESEDFVDYYCLQYATSPYTFGGGTKLEIKR
OUTPUT: 79

---
INPUT: Quick one: % max inhibition (pro-uPA pre-treat.) of 13D11 (antibody, V domains shown) VH: ELMKPGASVKLSCKATGYTFTDYWIEWVKQRPGHGLEWIGEILPGRDSTDYNENFKGKATFTADTSSNTAYMQLSSLTTEDSAIYYCARDYYGHISNWYFDVWGTGTTVTVS VL: SLSASLGERVSLTCRASQDIGSSLNWLQQEPDGTIKRLIYATSSLDSGVPKRFSGSRSGSDYSLTISSLESVDFVVYYCLQYATSPYTFGGGTKLEIKR ?
OUTPUT: 82
